Assay: AUC (0 to 24 hrs) in CD1 mouse at 2.5 mg/kg, iv measured upto 24 hrs by LC-MS/MS analysis
Format: ADME, organism-based
Set-up: route intravenous, dose 2.5 mg/kg, time <=24
Settings: in vivo

compoundStructureString: CCOP(=O)(Cn1ccc(NC(=O)c2cc(Oc3cnc(C(=O)N4CCC4)cn3)cc(OC(C)C)c2)n1)OCC
AUC(0-t): 24.9 µM·h

====

Assay: AUC (0 to 24 hrs) in Beagle dog at 3 mg/kg, iv measured upto 24 hrs
Type: ADME, organism-based, Canis lupus familiaris
Design: route intravenous, dose 3 mg/kg, time <=24
Conditions: in vivo

compoundStructureString: CCOP(=O)(Cn1ccc(NC(=O)c2cc(Oc3cnc(C(=O)N4CCC4)cn3)cc(OC(C)C)c2)n1)OCC
AUC(0-t) / µM·h: 12.3

====

Experiment: Oral bioavailability in Beagle dog at 3 mg/kg measured upto 24 hrs
Type: ADME, organism-based, Canis lupus familiaris
Details: in vivo

compoundStructureString: CCOP(=O)(Cn1ccc(NC(=O)c2cc(Oc3cnc(C(=O)N4CCC4)cn3)cc(OC(C)C)c2)n1)OCC
bioavailability: 66%

====

Experiment: Systemic plasma clearance in Beagle dog at 3 mg/kg, iv measured upto 24 hrs
Type: ADME, organism-based, Canis lupus familiaris

compoundStructureString: CCOP(=O)(Cn1ccc(NC(=O)c2cc(Oc3cnc(C(=O)N4CCC4)cn3)cc(OC(C)C)c2)n1)OCC
resultUnits: mL/min/kg
clearance: 7.2

====

Target: UniProtKB Q12809
Sequence (Q12809 whole entry): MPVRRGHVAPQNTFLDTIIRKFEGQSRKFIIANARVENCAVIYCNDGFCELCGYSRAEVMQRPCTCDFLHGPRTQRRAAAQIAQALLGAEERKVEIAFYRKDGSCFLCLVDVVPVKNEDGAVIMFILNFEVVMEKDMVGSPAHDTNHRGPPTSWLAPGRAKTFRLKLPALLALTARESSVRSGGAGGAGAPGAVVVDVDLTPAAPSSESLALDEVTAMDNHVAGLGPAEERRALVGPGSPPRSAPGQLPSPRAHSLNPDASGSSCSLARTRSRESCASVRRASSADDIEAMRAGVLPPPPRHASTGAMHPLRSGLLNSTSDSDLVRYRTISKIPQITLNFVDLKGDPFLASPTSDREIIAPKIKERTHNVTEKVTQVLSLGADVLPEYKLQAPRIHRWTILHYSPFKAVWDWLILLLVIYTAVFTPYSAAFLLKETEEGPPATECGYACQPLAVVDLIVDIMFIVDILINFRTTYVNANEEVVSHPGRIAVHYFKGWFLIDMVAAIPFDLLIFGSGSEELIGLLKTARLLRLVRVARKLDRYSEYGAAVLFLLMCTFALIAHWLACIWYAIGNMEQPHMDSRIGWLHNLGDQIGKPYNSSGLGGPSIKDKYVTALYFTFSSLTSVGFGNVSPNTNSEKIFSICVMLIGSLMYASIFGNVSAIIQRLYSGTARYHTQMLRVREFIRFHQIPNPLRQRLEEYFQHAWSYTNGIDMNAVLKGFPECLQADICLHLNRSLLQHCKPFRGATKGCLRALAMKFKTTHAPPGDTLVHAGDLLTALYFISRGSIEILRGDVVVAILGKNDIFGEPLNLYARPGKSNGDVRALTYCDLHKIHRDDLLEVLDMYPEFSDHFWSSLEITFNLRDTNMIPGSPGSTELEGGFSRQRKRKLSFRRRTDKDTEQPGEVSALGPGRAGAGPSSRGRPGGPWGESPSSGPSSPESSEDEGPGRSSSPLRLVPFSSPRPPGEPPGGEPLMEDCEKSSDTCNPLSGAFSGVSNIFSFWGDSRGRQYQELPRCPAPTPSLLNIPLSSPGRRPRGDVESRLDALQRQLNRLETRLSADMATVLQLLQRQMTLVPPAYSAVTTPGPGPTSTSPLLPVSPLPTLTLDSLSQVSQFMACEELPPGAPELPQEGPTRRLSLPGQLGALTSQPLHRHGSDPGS
Experiment: Inhibition of hERG at 10 uM by patch clamp method relative to control
Type: toxicity

compoundStructureString: CCOP(=O)(Cc1csc(NC(=O)c2cc(Oc3ccc(S(C)(=O)=O)cc3)cc(O[C@@H](C)COC)c2)n1)OCC
inhibition at 10 µM: 60%

====

The following molecules are listed with their measured pEC50 values.
Molecular target: UniProt P35557
Test: Activation of recombinant full length human liver glucokinase expressed in Escherichia coli incubated for 10 mins by plate reader analysis
pEC50: −log10 of the molar value.

compoundStructureString: CCOP(=O)(Cn1ccc(NC(=O)c2cc(Oc3ccc(S(=O)(=O)C(C)C)cc3)cc(OC(C)C)c2)n1)OCC
testedOn: UniProt P35557
pEC50: 7.49
//
compoundStructureString: CCOP(=O)(Cn1ccc(NC(=O)c2cc(Oc3ccc(S(C)(=O)=O)cc3)cc(O[C@@H](C)COC)c2)n1)OCC
testedOn: UniProt P35557
pEC50: 7.12
//
compoundStructureString: CCOP(=O)(Cn1ccc(NC(=O)c2cc(Oc3ccc(S(C)(=O)=O)cc3)cc(O[C@@H](C)CF)c2)n1)OCC
testedOn: UniProt P35557
pEC50: 7.06
//
compoundStructureString: COC[C@H](C)Oc1cc(Oc2ccc(S(C)(=O)=O)cc2)cc(C(=O)Nc2ccn(CP(C)(C)=O)n2)c1
testedOn: UniProt P35557
pEC50: 6.17
//
compoundStructureString: CCOP(=O)(Cc1cnc(NC(=O)c2cc(Oc3ccc(S(C)(=O)=O)cc3)cc(O[C@@H](C)COC)c2)cn1)OCC
testedOn: UniProt P35557
pEC50: 6.79
//
compoundStructureString: CCOP(=O)(Cc1csc(NC(=O)c2cc(Oc3ccc(S(C)(=O)=O)cc3)cc(O[C@@H](C)COC)c2)n1)OCC
testedOn: UniProt P35557
pEC50: 7.42
//
compoundStructureString: CCOP(=O)(Cn1ccc(NC(=O)c2cc(Oc3ccc(S(=O)(=O)CC)cc3)cc(OC(C)C)c2)n1)OCC
testedOn: UniProt P35557
pEC50: 7.55
//
compoundStructureString: CCOP(=O)(Cn1ccc(NC(=O)c2cc(Oc3ccc(S(C)(=O)=O)cc3)cc(O[C@@H](C)CO)c2)n1)OCC
testedOn: UniProt P35557
pEC50: 7.10

====

Assay: Permeability of compound at pH 7.4 by PAMPA assay
Type: ADME
Conditions: read-out: permeability

compoundStructureString: CCOP(=O)(Cn1ccc(NC(=O)c2cc(Oc3cnc(S(C)(=O)=O)cn3)cc(OC(C)C)c2)n1)OCC
resultUnits: ×10⁻⁶ cm/s
Papp: 44.5

compoundStructureString: CCOP(=O)(Cn1ccc(NC(=O)c2cc(Oc3ccc(S(C)(=O)=O)nn3)cc(OC(C)C)c2)n1)OCC
resultUnits: ×10⁻⁶ cm/s
Papp: 25.5

compoundStructureString: CCOP(=O)(Cn1ccc(NC(=O)c2cc(Oc3ccc(S(=O)(=O)C(C)C)cc3)cc(OC(C)C)c2)n1)OCC
resultUnits: ×10⁻⁶ cm/s
Papp: 53.6

compoundStructureString: CCOP(=O)(Cn1ccc(NC(=O)c2cc(Oc3ccc(S(C)(=O)=O)cc3)cc(O[C@@H](C)CF)c2)n1)OCC
resultUnits: ×10⁻⁶ cm/s
Papp: 56

====

Test: AUC (0 to 24 hrs) in Sprague-Dawley rat at 5 mg/kg, po measured upto 24 hrs by LC-MS/MS analysis
Assay type: ADME, organism-based
Set-up: route oral, dose 5 mg/kg, time <=24
Details: in vivo

compoundStructureString: CCOP(=O)(Cn1ccc(NC(=O)c2cc(Oc3cnc(C(=O)N4CCC4)cn3)cc(OC(C)C)c2)n1)OCC
AUC(0-t) / µM·h: 29.5

====

Experiment: Half life in Sprague-Dawley rat at 2.5 mg/kg, po measured upto 24 hrs by LC-MS/MS analysis
Format: ADME, organism-based
Details: in vivo
readoutLabel: half-life (min)

compoundStructureString: CCOP(=O)(Cn1ccc(NC(=O)c2cc(Oc3cnc(C(=O)N4CCC4)cn3)cc(OC(C)C)c2)n1)OCC
quantitativeResult: 54

====

Assay: AUC (0 to 24 hrs) in CD1 mouse at 5 mg/kg, po measured upto 24 hrs by LC-MS/MS analysis
Type: ADME, organism-based
Parameters: route oral, dose 5 mg/kg, time <=24
Settings: in vivo

compoundStructureString: CCOP(=O)(Cn1ccc(NC(=O)c2cc(Oc3cnc(C(=O)N4CCC4)cn3)cc(OC(C)C)c2)n1)OCC
AUC(0-t): 49.7 µM·h

====

Each entry below carries its recorded remaining at 10 min, 0.5 µM.
Experiment: Microsomal stability in human liver microsomes assessed as parent compound remaining at 0.5 uM measured after 10 mins in presence of NADPH
Format: ADME, Microsome
Conditions: read-out: Stability
readoutLabel: remaining at 10 min, 0.5 µM (%)

compoundStructureString: CCOP(=O)(Cn1ccc(NC(=O)c2cc(Oc3cnc(S(C)(=O)=O)cn3)cc(OC(C)C)c2)n1)OCC
quantitativeResult: 91

compoundStructureString: CCOP(=O)(Cn1ncc(NC(=O)c2cc(Oc3ccc(S(C)(=O)=O)cc3)cc(O[C@@H](C)COC)c2)n1)OCC
quantitativeResult: 33

compoundStructureString: CCOP(=O)(Cn1ccc(NC(=O)c2cc(Oc3ccc(S(C)(=O)=O)cc3)cc(O[C@@H](C)COC)c2)n1)OCC
quantitativeResult: 11

compoundStructureString: CCOP(=O)(Cc1cnc(NC(=O)c2cc(Oc3ccc(S(C)(=O)=O)cc3)cc(O[C@@H](C)COC)c2)cn1)OCC
quantitativeResult: 54

compoundStructureString: CCOP(=O)(Cn1ccc(NC(=O)c2cc(Oc3cnc(C(=O)N4CCC4)cn3)cc(OC(C)C)c2)n1)OCC
quantitativeResult: 96

compoundStructureString: COC[C@H](C)Oc1cc(Oc2ccc(S(C)(=O)=O)cc2)cc(C(=O)Nc2ccn(CP(C)(C)=O)n2)c1
quantitativeResult: 96

compoundStructureString: CCOP(=O)(Cn1ccc(NC(=O)c2cc(Oc3ccc(S(C)(=O)=O)nc3)cc(OC(C)C)c2)n1)OCC
quantitativeResult: 96

compoundStructureString: CCOP(=O)(Cn1ccc(NC(=O)c2cc(Oc3ccc(S(=O)(=O)N4CCC4)cc3)cc(OC(C)C)c2)n1)OCC
quantitativeResult: 46

====

Experiment: Aqueous solubility of the compound at pH 6.5 using crystaline form of sample
Assay type: physicochemical
readoutLabel: solubility (µg/mL)

compoundStructureString: CCOP(=O)(Cn1ccc(NC(=O)c2cc(Oc3cnc(C(=O)N4CCC4)cn3)cc(OC(C)C)c2)n1)OCC
resultUnits: µg/mL
quantitativeResult: 10

====

Target: Hexokinase-4 (Homo sapiens)
Sequence (P35557 whole entry): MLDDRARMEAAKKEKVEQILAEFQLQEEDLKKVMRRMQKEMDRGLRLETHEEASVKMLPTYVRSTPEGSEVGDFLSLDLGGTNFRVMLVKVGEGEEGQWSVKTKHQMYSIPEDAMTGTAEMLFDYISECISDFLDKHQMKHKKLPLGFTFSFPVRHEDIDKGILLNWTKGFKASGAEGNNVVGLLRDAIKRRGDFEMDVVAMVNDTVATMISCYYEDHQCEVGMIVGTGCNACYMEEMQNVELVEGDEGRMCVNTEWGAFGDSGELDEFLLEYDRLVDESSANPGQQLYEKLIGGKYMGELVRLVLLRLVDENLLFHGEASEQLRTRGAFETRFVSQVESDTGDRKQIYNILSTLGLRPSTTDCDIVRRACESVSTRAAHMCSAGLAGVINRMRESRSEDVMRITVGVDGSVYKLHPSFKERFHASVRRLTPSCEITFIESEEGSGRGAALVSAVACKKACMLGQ
Experiment: Activation of recombinant full length human liver glucokinase expressed in Escherichia coli incubated for 10 mins by plate reader analysis
Items are presented alongside their recorded EC50.
readoutLabel: EC50 (nM)

compoundStructureString: CCOP(=O)(Cn1ccc(NC(=O)c2cc(Oc3ccc(S(C)(=O)=O)nc3)cc(OC(C)C)c2)n1)OCC
resultUnits: nM
quantitativeResult: 24

compoundStructureString: CCOP(=O)(Cn1ccc(NC(=O)c2cc(Oc3ccc(C(=O)N4CCC4)cn3)cc(OC(C)C)c2)n1)OCC
resultUnits: nM
quantitativeResult: 188

compoundStructureString: CCOP(=O)(Cn1ccc(NC(=O)c2cc(Oc3cnc(S(C)(=O)=O)cn3)cc(OC(C)C)c2)n1)OCC
resultUnits: nM
quantitativeResult: 159

compoundStructureString: CCOP(=O)(Cn1ccc(NC(=O)c2cc(Oc3ccc(S(C)(=O)=O)nn3)cc(OC(C)C)c2)n1)OCC
resultUnits: nM
quantitativeResult: 530
